- assay.protocol: Emulsion stability testing of nonionic emulsifiers, Hallcomid solvent series
- Format: physicochemical
- Parameters: key: C = creamy; CO = creamy oil; O = oil; GC = gritty cream; NS = no separation; OC = oily cream
- run.parameters: Tebuconazole 360 g/L in Hallcomid M-8-10, 1000 ppm water

{"columns": ["molecule", "24 h separation, appearance"],
 "data": [
  ["CCC=CCCCCCCCCOCCOCCOCCOCCOCCOCCOCCOCCOCCOCCOCCOCCOCCOCCOCCO (mixture of isomers) [A12-16]", "C"],
  ["C=CCCCCCCCCOCCOCCOCCO [A10-7]", "C"],
  ["CCC=CCCCCCCCCOCCOCCOCCOCCOCCOCCOCCO (mixture of isomers) [A12-13]", "C"],
  ["C=CCCCCCCCCOCCOCCOCCOCCOCCOCCOCCO [A10-13]", "C"]
]}

====

- assay.protocol: Emulsion stability testing of nonionic emulsifiers, Hallcomid solvent series
- Type: physicochemical
- run.parameters: Tebuconazole 360 g/L in Hallcomid M-8-10, 1000 ppm water
rule met means recorded 24 h separation, amount is 5 mL or above; rule not met means it is below 5 mL.

{"columns": ["compound", "assigned.label"],
 "data": [
  ["C=CCCCCCCCCOCCOCCOCCOCCOCCOCCOCCOCCOCCOCCOCCOCCOCCOCCOCCO", "rule not met"],
  ["CCC=CCCCCCCCCOCCOCCOCCOCCOCCOCCOCCO (mixture of isomers)", "rule not met"],
  ["CCC=CCCCCCCCCOCCOCCOCCOCCOCCO (mixture of isomers)", "rule not met"],
  ["C=CCCCCCCCCOCCO", "rule met"],
  ["CCC=CCCCCCCCCOCCOCCOCCOCCOCCOCCOCCOCCOCCOCCOCCOCCOCCOCCOCCO (mixture of isomers)", "rule not met"],
  ["CCC=CCCCCCCCCOCCO (mixture of isomers)", "rule met"],
  ["C=CCCCCCCCCOCCOCCOCCOCCOCCOCCOCCO", "rule met"]
]}

====

- assay.protocol: Emulsion stability testing of nonionic emulsifiers, aromatic solvent series
- Format: physicochemical
- run.parameters: Bifenthrin 240 g/L in Aromatic 100, 1000 ppm water
- Experimental: Nonionic samples contain a low amount of water (<1%) and are prepared as emulsifiable concentrates with three pesticides using two different solvent systems. In the aromatic solvent series, the nonionic sample replaces Toximul® 8240 (castor oil ethoxylate, 36 POE, Stepan), and in the Hallcomid™ (N,N-dimethylcaprylamide/N,N-dimethylcapramide, Stepan) solvent series, the nonionic sample replaces Ninex® MT-630F. […]

{"columns": ["molecule", "1 h separation, amount"],
 "data": [
  ["C=CCCCCCCCCOCCOCCOCCOCCOCCO [A10-10]", "3 O, 5 CO"],
  ["C=CCCCCCCCCOCCOCCOCCOCCOCCOCCOCCO [A10-13]", "NS"],
  ["CCC=CCCCCCCCCOCCOCCOCCOCCOCCOCCOCCO (mixture of isomers) [A12-13]", "Tr."]
]}

====

- assay.protocol: Emulsion stability testing of nonionic emulsifiers, Hallcomid solvent series
- Format: physicochemical
- run.parameters: Tebuconazole 360 g/L in Hallcomid M-8-10, 34 ppm water

{"columns": ["compound", "1 h separation, amount (mL)"],
 "data": [
  ["C=CCCCCCCCCOCCOCCOCCO", 2.5],
  ["CCC=CCCCCCCCCOCCOCCOCCO (mixture of isomers)", 2],
  ["CCC=CCCCCCCCCOCCOCCOCCOCCOCCOCCOCCOCCOCCOCCOCCOCCOCCOCCOCCO (mixture of isomers)", 1.5]
]}

====

- assay.protocol: Emulsion stability testing of nonionic emulsifiers, aromatic solvent series
- Type: physicochemical
- run.parameters: Tebuconazole 360 g/L in N-methyl-2-pyrrolidone, 34 ppm water

{"columns": ["molecule", "1 h separation, amount (mL)"],
 "data": [
  ["CCC=CCCCCCCCCOCCOCCOCCO (mixture of isomers) [A12-7]", 2.3],
  ["C=CCCCCCCCCOCCO [A10-4]", 2]
]}

====

- assay.protocol: Emulsion stability testing of nonionic emulsifiers, Hallcomid solvent series
- Format: physicochemical
- run.parameters: Tebuconazole 360 g/L in Hallcomid M-8-10, 1000 ppm water
- Experimental: Nonionic samples contain a low amount of water (<1%) and are prepared as emulsifiable concentrates with three pesticides using two different solvent systems. In the aromatic solvent series, the nonionic sample replaces Toximul® 8240 (castor oil ethoxylate, 36 POE, Stepan), and in the Hallcomid™ (N,N-dimethylcaprylamide/N,N-dimethylcapramide, Stepan) solvent series, the nonionic sample replaces Ninex® MT-630F. Hallcomid Solvent Series. […]
# 1 h separation, amount values compiled below
recorded.endpoint: 1 h separation, amount

{"columns": ["molecule", "recorded.endpoint", "reading"],
 "data": [
  ["C=CCCCCCCCCOCCO", "1 h separation, amount", "4 mL"],
  ["CCC=CCCCCCCCCOCCOCCOCCOCCOCCOCCOCCO (mixture of isomers)", "1 h separation, amount", "1.8 mL"],
  ["CCC=CCCCCCCCCOCCOCCOCCO (mixture of isomers)", "1 h separation, amount", "2.7 mL"],
  ["CCC=CCCCCCCCCOCCOCCOCCOCCOCCOCCOCCOCCOCCOCCOCCOCCOCCOCCOCCO (mixture of isomers)", "1 h separation, amount", "1.5 mL"],
  ["CCC=CCCCCCCCCOCCOCCOCCOCCOCCO (mixture of isomers)", "1 h separation, amount", "2 mL"]
]}

====

- assay.protocol: Emulsion stability testing of nonionic emulsifiers, Hallcomid solvent series
- Assay type: physicochemical
- run.parameters: Tebuconazole 360 g/L in Hallcomid M-8-10, 1000 ppm water
recorded.endpoint: 24 h separation, amount (mL)

{"columns": ["compound", "recorded.endpoint", "reading"],
 "data": [
  ["CCC=CCCCCCCCCOCCOCCOCCO (mixture of isomers) [A12-7]", "24 h separation, amount", 4.9],
  ["C=CCCCCCCCCOCCOCCOCCO [A10-7]", "24 h separation, amount", 5]
]}

Source of measurements: patent US9708251B2
